- Tested on: Bacillus subtilis DB104 (SP-AmyQ fusion secretion)
- methodSummary: AmyQ secretion efficiency, weighted average sort bin (1 = best secretion, 10 = worst) (bin number (weighted average, 1-10)); higher = lower secretion efficiency
parameterMeasured: AmyQ secretion efficiency
Numbers only.

MGLGKKLSVAVAASFMSLSISLPGVQMAEG 3.92
MSVMTTMLLSTAAGLLLSLTATSVSAHYV 4.5

Provide AmyQ secretion efficiency values for the following items, in order.
1. MRKKTKNRLISSVLSTVVISSLLFAPGAAGASSK
2. MKKKLAAGLTASAIVGTTLVVTPAELATI

## Output
1: 2.22; 2: 5.54

I have 2 sequences here; please give me AmyQ secretion efficiency for each one.
1. MLKRTSFVSSSFISSAVLLSILLPSGQAHAQSA
2. MRHKIITFILAVVVIIIIGNMIGGGGGSEATSK

## Output
[2.16, 5.87]
